# credit: patent US20040146519A1

molecular target: HLA-B*5101 (human); assay: inhibition of 125I probe peptide, purified HLA
property_label: IC50 (nM)
Express it in nM; write the number only.

Here are 2 binders together with their reported answers.
binder | IC50 (nM)
FPNNNGTI [CEA.646.F1] | 19
FPQQHTQVL [CEA.632.F1, 9 AA] | 183

Prompt line: // returns reported IC50 for input FPPHRWCIPI [CEA.6.F1I10]
Response line: 423
